Numbers sourced from paper PMC6430037.

Target: 5-HT1A receptor (Rattus norvegicus)
Sequence (P19327 1-422): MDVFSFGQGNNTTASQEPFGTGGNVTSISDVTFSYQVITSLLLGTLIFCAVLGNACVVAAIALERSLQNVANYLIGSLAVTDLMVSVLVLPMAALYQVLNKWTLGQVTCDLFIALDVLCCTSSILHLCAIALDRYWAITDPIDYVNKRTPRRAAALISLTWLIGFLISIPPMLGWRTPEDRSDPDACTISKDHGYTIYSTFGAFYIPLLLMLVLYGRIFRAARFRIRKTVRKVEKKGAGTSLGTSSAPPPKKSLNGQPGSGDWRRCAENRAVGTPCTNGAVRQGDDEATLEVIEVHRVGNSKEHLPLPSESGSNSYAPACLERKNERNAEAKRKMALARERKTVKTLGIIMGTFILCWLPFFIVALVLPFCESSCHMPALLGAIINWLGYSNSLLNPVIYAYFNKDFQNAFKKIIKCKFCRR
Assay: [3H]-8-OH-DPAT radioligand binding assay
pKi: −log10 of the molar value.
Is pKi at least 4? Then True. If not, False.

[[record]]
molecule = "Cc1cc(O)c(C(=O)/C=C/c2ccccc2)cc1C [Compound 11]"
discrete_label = "False"

[[record]]
molecule = "O=C(/C=C/c1ccccc1)c1cc(Br)cc(Br)c1O [Compound 10]"
discrete_label = "False"

[[record]]
molecule = "CN(C)c1ccc(/C=C/C(=O)c2ccccc2)cc1 [Compound 20]"
discrete_label = "True"

[[record]]
molecule = "O=C(/C=C/c1ccccc1)c1ccccc1 [Compound 1, Chalcone]"
discrete_label = "True"

[[record]]
molecule = "COc1cc(C(=O)/C=C/c2ccccc2)ccc1O [Compound 13]"
discrete_label = "False"

[[record]]
molecule = "COc1cccc(O)c1C(=O)/C=C/c1ccccc1 [Compound 5]"
discrete_label = "True"

[[record]]
molecule = "Nc1ccc(C(=O)/C=C/c2cccc([N+](=O)[O-])c2)cc1 [Compound 21]"
discrete_label = "False"

[[record]]
molecule = "O=C(/C=C/c1ccccc1)c1ccccc1O [Compound 2]"
discrete_label = "True"

[[record]]
molecule = "COc1ccc(O)c(C(=O)/C=C/c2ccccc2)c1 [Compound 4]"
discrete_label = "False"


----------
test: PAMPA-BBB permeability assay; assay type: in vitro ADME; conditions: PAMPA, pH 7.4
Value Type: Papp at 16 h, 50 µM (nm/s)

[[record]]
compound = "O=C(/C=C/c1ccccc1)c1ccccc1 [Compound 1, Chalcone]"
value_unit = "nm/s"
test_result = 263

[[record]]
compound = "Cc1cc(C(=O)/C=C/c2ccccc2)c(O)c([N+](=O)[O-])c1 [Compound 12]"
value_unit = "nm/s"
test_result = 339

[[record]]
compound = "Cc1ccc(O)c(C(=O)/C=C/c2ccccc2)c1 [Compound 9]"
value_unit = "nm/s"
test_result = 251


----------
Target: UniProt P19327
Sequence (P19327 1-422): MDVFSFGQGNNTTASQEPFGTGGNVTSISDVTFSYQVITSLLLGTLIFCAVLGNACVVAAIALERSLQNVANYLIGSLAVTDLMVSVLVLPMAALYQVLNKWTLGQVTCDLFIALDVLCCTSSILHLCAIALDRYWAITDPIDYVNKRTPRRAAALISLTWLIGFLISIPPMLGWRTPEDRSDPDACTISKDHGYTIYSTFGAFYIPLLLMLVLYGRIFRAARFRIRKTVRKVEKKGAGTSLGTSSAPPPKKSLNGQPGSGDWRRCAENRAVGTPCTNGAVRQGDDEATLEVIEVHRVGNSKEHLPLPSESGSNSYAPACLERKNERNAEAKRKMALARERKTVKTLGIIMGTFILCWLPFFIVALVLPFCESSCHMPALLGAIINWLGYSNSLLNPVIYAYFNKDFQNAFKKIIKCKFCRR
Assay: [3H]-8-OH-DPAT radioligand binding assay
Conditions: read-out: 5-HT1A Binding Inhibition (%) [300 μM]
# inhibition at 300 µM per entry
Value Type: inhibition at 300 µM

[[record]]
smiles = "O=C(/C=C/c1ccccc1)c1ccccc1O"
test_result = "60 to 90%"

[[record]]
smiles = "Cc1cc(O)c(C(=O)/C=C/c2ccccc2)cc1C"
test_result = "60 to 90%"

[[record]]
smiles = "Nc1ccc(C(=O)/C=C/c2ccccc2)cc1"
test_result = "40 to 60%"

[[record]]
smiles = "O=C(/C=C/c1ccc([N+](=O)[O-])cc1)c1ccccc1"
test_result = "< 20%"

[[record]]
smiles = "O=C(/C=C/c1cccc([N+](=O)[O-])c1)c1ccccc1"
test_result = "40 to 60%"

[[record]]
smiles = "COc1cccc(O)c1C(=O)/C=C/c1ccccc1"
test_result = "> 90%"

[[record]]
smiles = "O=C(/C=C/c1ccccc1)c1cc(Br)ccc1O"
test_result = "40 to 60%"

[[record]]
smiles = "O=C(/C=C/c1ccccc1)c1ccccc1"
test_result = "60 to 90%"

[[record]]
smiles = "O=C(/C=C/c1ccccc1)c1cc(F)ccc1O"
test_result = "60 to 90%"

[[record]]
smiles = "CN(C)c1ccc(/C=C/C(=O)c2ccccc2)cc1"
test_result = "60 to 90%"

[[record]]
smiles = "O=C(/C=C/c1ccccc1)c1cc(Cl)ccc1O"
test_result = "40 to 60%"


----------
target: UniProt P33535; experiment: [3H]-DAMGO radioligand binding assay; details: μ-opioid Ki, [3H]-DAMGO, rat forebrain membranes, Ki ± SEM, 2 determinations
Value Type: Ki (µM)

[[record]]
molecule = "O=C(/C=C/c1ccccc1)c1cc(F)ccc1O [Compound 7]"
test_result = 29.5

[[record]]
molecule = "Nc1ccc(C(=O)/C=C/c2ccccc2)cc1 [Compound 14]"
test_result = 59.4

[[record]]
molecule = "Cc1ccc(O)c(C(=O)/C=C/c2ccccc2)c1 [Compound 9]"
test_result = 46.3

[[record]]
molecule = "O=C(/C=C/c1ccccc1)c1cc(Cl)ccc1O [Compound 6]"
test_result = 19.4

[[record]]
molecule = "COc1ccc(O)c(C(=O)/C=C/c2ccccc2)c1 [Compound 4]"
test_result = 54.6

[[record]]
molecule = "Cc1cc(C(=O)/C=C/c2ccccc2)c(O)c([N+](=O)[O-])c1 [Compound 12]"
test_result = 10.8

[[record]]
molecule = "COc1cccc(O)c1C(=O)/C=C/c1ccccc1 [Compound 5]"
test_result = 26.7

[[record]]
molecule = "CN(C)c1ccc(/C=C/C(=O)c2ccccc2)cc1 [Compound 20]"
test_result = 23.8

[[record]]
molecule = "O=C(/C=C/c1ccccc1)c1cc(Br)cc(Br)c1O [Compound 10]"
test_result = 32.5

[[record]]
molecule = "Cc1cc(O)c(C(=O)/C=C/c2ccccc2)cc1C [Compound 11]"
test_result = 29.1


----------
test system: BDZ-bs of the GABAA receptor; assay: [3H]-FNZ radioligand binding assay; conditions: [3H]-FNZ displacement, compound at 300 μM, rat cerebral cortex membranes
Value Type: BDZ-bs Binding inhibition (%) [300 μM]

[[record]]
smiles = "CN(C)c1ccc(/C=C/C(=O)c2ccccc2)cc1"
experimental_target = "BDZ-bs of the GABAA receptor"
value_type = "BDZ-bs Binding inhibition (%) [300 μM]"
test_result = "- (inhibition <20% (-))"

[[record]]
smiles = "COc1cccc(O)c1C(=O)/C=C/c1ccccc1"
experimental_target = "BDZ-bs of the GABAA receptor"
value_type = "BDZ-bs Binding inhibition (%) [300 μM]"
test_result = "- (inhibition <20% (-))"

[[record]]
smiles = "O=C(/C=C/c1ccccc1)c1cc(Br)cc(Br)c1O"
experimental_target = "BDZ-bs of the GABAA receptor"
value_type = "BDZ-bs Binding inhibition (%) [300 μM]"
test_result = "- (inhibition <20% (-))"

[[record]]
smiles = "O=C(/C=C/c1ccc([N+](=O)[O-])cc1)c1ccccc1"
experimental_target = "BDZ-bs of the GABAA receptor"
value_type = "BDZ-bs Binding inhibition (%) [300 μM]"
test_result = "- (inhibition <20% (-))"


----------
# inhibition at 300 µM per entry
target: μ-opioid receptor (Rattus norvegicus); assay: [3H]-DAMGO radioligand binding assay; details: read-out: μ-opioid Binding inhibition (%) [300 μM]
Sequence (P33535 whole entry): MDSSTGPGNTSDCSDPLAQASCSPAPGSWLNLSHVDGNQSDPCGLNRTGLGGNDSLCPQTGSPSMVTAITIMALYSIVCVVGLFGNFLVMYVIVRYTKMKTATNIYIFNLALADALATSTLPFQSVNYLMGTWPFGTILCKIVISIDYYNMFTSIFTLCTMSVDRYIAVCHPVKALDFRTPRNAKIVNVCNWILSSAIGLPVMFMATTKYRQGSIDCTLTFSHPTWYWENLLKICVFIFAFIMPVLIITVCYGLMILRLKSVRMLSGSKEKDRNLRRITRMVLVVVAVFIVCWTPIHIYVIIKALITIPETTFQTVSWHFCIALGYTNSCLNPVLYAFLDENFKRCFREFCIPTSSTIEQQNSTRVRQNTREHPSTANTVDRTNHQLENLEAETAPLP
Value Type: inhibition at 300 µM

[[record]]
smiles = "O=C(/C=C/c1cccc([N+](=O)[O-])c1)c1ccccc1"
value_type = "inhibition at 300 µM"
test_result = "< 20%"

[[record]]
smiles = "O=C(/C=C/c1ccccc1)c1cc(F)ccc1O"
value_type = "inhibition at 300 µM"
test_result = "60 to 90%"

[[record]]
smiles = "COc1cccc(O)c1C(=O)/C=C/c1ccccc1"
value_type = "inhibition at 300 µM"
test_result = "60 to 90%"

[[record]]
smiles = "COc1ccc(O)c(C(=O)/C=C/c2ccccc2)c1"
value_type = "inhibition at 300 µM"
test_result = "60 to 90%"

